- protocol.notes: Half life in human liver microsomes by HPLC-MS/MS analysis in presence of NADPH
- Format: ADME
quantity.name: half-life (h)

compound	half-life [h]
C=C1C(=O)O[C@@H]2C3O[C@]3(C)CC/C=C(\C)CC[C@@H]12 (some centres not stated)	1.39
C=C1C(=O)O[C@H]2[C@H]1CC/C(C(F)(F)F)=C\CC[C@@]1(C)O[C@@H]21	1.43

###

- protocol.notes: Metabolic stability in rat plasma assessed as compound degradation after 420 mins
- Type: ADME, cell-free
- settings: read-out: Drug degradation
quantity.name: metabolised at 7 h (%)
Quick note: give the figure in %, leave out the unit.

query: Supply measured metabolised at 7 h of `C/C1=C\CC[C@@]2(C)O[C@H]2[C@H]2OC(=O)[C@@H](C)[C@@H]2CC1` in your reply.
result: 20
